- target.system: human recombinant muscarinic receptor subtype 1 (M1) expressed in CHO cells (Homo sapiens)
- Construct: purchased Biosignal, Canada; host or cells: CHO cells
- Sequence (P11229 whole entry): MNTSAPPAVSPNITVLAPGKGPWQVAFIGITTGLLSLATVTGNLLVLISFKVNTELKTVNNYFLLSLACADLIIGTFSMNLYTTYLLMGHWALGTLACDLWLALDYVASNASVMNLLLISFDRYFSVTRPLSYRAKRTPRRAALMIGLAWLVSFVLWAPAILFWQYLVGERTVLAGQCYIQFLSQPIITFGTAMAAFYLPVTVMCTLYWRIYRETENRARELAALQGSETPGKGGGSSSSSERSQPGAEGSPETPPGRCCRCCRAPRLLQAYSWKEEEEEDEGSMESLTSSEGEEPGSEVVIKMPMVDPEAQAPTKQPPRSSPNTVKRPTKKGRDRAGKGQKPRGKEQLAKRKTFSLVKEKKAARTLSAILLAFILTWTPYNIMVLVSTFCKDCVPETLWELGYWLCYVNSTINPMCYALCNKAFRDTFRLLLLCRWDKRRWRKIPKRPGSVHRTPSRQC
- experiment: [3H]-N-methyl-scopolamine ([3H]-NMS) affinity screening test, M1
- condition.label: inhibition of specific [3H]-NMS binding, compound at 10 μM
Label MET when inhibition at 10 µM is at or above 40%; anything below gets NOT MET.

compound: CN1CCC=C(C(CN2CCCC2=O)=NO)C1
category: MET

compound: CN1CCC=C(C#CCN2CCCC2=O)C1
category: MET

compound: C#CCON=C(CCN1CCCC1=O)C1=CCCN(C)C1
category: MET

Then this compound:
Exam item: Please tell me: is the compound CN1CCC=C(C(CN2CCCC2=O)=NOCc2ccccc2)C1 (mixture of isomers) at or over 40% in terms of inhibition at 10 µM?
Marked response: NOT MET

###

- Tested on: Oxo-M binding receptor of muscarinic receptors (rat forebrain synapse membranes)
- Construct: under head M1
- experiment: [3H]-oxotremorine-M ([3H]-Oxo-M) affinity screening test
- condition.label: inhibition of specific [3H]-Oxo-M binding, compound at 1 μM; under head M1
Label label 1 when M1 Oxo-M (1 μM) inhibition is at or above 90%; anything below gets label 0.

Illustrative cases are given below, each with its answer.
compound: C#CCON=C(CN1CCCC1=O)c1cccnc1
target.system: Oxo-M binding receptor of muscarinic receptors (rat forebrain synapse membranes)
category: label 0

compound: C#CCON=C(CCN1CCCC1=O)C1=CCCN(C)C1
target.system: Oxo-M binding receptor of muscarinic receptors (rat forebrain synapse membranes)
category: label 0

compound: CN1CCC=C(C(CN2CCCC2=O)=NO)C1
target.system: Oxo-M binding receptor of muscarinic receptors (rat forebrain synapse membranes)
category: label 1

Exam item: Please tell me: is the compound `CN1CCC=C(C#CCN2CCCC2=O)C1` at or over 90% in terms of M1 Oxo-M (1 μM) inhibition?
Marked response: label 1

Exam item: Please tell me: is the compound CN1CCC=C(C(CN2CCCC2=O)=NOCc2ccccc2)C1 (mixture of isomers) at or over 90% in terms of M1 Oxo-M (1 μM) inhibition?
Marked response: label 0

Exam item: Please tell me: is the compound COC(=O)C1=CCCN(C)C1 [Arecoline, reference compound] at or over 90% in terms of M1 Oxo-M (1 μM) inhibition?
Marked response: label 0

Data provenance is patent US6716857B2.
